For each record, write down the corresponding pIC50.
- system tested: CDC7/DBF4 (Homo sapiens, UniProt O00311)
- Sequence (O00311 whole entry): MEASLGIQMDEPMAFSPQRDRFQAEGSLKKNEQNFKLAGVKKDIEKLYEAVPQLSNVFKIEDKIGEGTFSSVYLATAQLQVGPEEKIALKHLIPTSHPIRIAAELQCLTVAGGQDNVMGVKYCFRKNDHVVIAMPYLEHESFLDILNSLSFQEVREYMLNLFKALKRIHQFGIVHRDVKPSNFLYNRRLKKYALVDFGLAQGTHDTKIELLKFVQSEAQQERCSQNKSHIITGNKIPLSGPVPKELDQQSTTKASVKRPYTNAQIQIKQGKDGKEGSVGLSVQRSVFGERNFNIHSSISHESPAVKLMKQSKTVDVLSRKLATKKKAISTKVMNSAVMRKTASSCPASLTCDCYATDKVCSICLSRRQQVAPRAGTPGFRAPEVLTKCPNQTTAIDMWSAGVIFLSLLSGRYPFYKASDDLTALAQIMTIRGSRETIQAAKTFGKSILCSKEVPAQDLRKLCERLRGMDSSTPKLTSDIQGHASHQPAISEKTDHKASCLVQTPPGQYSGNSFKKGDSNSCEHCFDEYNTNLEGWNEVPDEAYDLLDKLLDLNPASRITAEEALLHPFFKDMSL
- Sequence (Q9UBU7 whole entry partner): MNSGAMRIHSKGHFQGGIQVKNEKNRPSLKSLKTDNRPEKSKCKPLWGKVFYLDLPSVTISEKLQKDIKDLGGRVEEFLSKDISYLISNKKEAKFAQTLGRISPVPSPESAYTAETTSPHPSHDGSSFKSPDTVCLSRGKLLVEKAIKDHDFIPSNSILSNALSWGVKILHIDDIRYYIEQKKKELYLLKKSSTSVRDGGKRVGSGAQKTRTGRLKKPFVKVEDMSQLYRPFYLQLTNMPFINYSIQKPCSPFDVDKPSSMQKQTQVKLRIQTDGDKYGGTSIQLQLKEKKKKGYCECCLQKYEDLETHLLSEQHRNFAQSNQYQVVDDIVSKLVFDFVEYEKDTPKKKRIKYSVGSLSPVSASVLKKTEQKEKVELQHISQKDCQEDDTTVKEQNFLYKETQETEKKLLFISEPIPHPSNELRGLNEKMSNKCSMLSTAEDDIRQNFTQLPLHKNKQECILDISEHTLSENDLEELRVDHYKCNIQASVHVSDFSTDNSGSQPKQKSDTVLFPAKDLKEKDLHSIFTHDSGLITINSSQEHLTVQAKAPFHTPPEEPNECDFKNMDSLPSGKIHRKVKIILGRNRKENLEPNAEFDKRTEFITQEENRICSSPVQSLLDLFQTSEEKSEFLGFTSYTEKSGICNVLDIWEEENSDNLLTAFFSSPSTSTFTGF
- assay explanation: Kinase profiling
- Assay type: biochemical
- condition description: 10 semi-logarithmic dilutions from 50 μM, singlicate; read-out: IC50 CDC7/DBF4
Answers are plain numbers, as −log10 of the molar value.

Consider the reported pIC50 for these molecules:
O=c1ccc2cnc(Nc3ccc(N4CCC(CCCO)CC4)cc3)nc2n1C1CC2CCC1C2 (stereo not shown) [PD-0183812, reference compound]; 4.73
O=c1ccc2cnc(Nc3ccc(N4CCC(CCCO)CC4)c(F)c3)nc2n1[C@@H]1CC2CCC1C2 (stereo partly shown) [PS003]; 5.12

Proceed to the following item.
QUERY: Record CN(C)C(=O)c1cc2cnc(Nc3ccc(N4CCNCC4)cn3)nc2n1C1CCCC1 [Ribociclib, reference compound] : what is its pIC50 with CDC7/DBF4 (Homo sapiens, UniProt O00311)?
RESULT: 6.50
